Collected T/C values appear next to each entry.
Test system: CD2F1 mice, L1210 leukemia ip, survival T/C
Assay notes: NCI In Vivo Anticancer Drug Screen. Data for tumor model L1210 Leukemia (intraperitoneal) in CD2F1 (CDF1) mice
Settings: endpoint: mean survival time; dose: 200.0 mg/kg/injection; schedule: Q04DX003 (ip); vehicle: saline with Tween-80; higher = longer survival
Inconclusive results and toxic doses are left out.

Compound	T/C
Cc1cc(C)[nH]c(=S)n1.[Pt]	107 % of control
COC(CCC#N)c1ccc(Cl)cc1 (stereo unspecified)	102 % of control
N#CCc1c(Cl)c(Cl)c(Cl)c(Cl)c1Cl	103 % of control
c1ccc2nc(C3CO3)cnc2c1 (stereo unspecified)	97 % of control
CSc1nc(N)cc(N)n1	97 % of control
CC(C)C(NC(=O)OC(C)(C)C)C(=O)ON1C(=O)CCC1=O (stereo unspecified)	100 % of control
O=S(=O)(Nc1cccc(NS(=O)(=O)c2ccccc2)n1)c1ccccc1	102 % of control
Nc1ccccc1N=Cc1cccc([N+](=O)[O-])c1	98 % of control
O=C1CN(c2ccc3ccccc3c2)NO1	93 % of control
CC(NC(=O)CNC(=O)CNC(=O)OCc1ccccc1)C(=O)OCc1ccccc1 (stereo unspecified)	99 % of control

Provide only the value of recorded T/C for CC1(C)CC(=O)C2=C(C1)OC1=C(C(=O)CC(C)(C)C1)C2c1ccccc1Cl
100 % of control

Provide only the value of recorded T/C for O=C(CC(CC(=O)C(c1ccccc1)c1ccccc1)c1ccccc1)C(c1ccccc1)c1ccccc1
86 % of control

Provide only the value of recorded T/C for O=C(c1ccccc1)C(O)c1ccccc1 (stereo unspecified)
96 % of control

Provide only the value of recorded T/C for Cc1ccc(C)c(NC(=O)c2ccc(Cl)cc2Cl)c1
98 % of control

Provide only the value of recorded T/C for N/C(=N\N=C1CCCC1)N[N+](=O)[O-]
102 % of control
